readout.kind: melting point

// solved cases for melting point follow
{"molecule": "Cc1ccc(CNC(=O)c2cc3c(ccc4cnn(C[C@H](C)N)c43)o2)o1", "readout.kind": "melting point", "result": "118 to 120 °C"}
{"molecule": "CC(=O)c1ccc(OCc2cncnc2)cc1OC(CCC(=O)O)c1ccccc1C (racemic)", "readout.kind": "melting point", "result": "142 to 144 °C"}
{"molecule": "COc1ccc(-c2cnc(NS(=O)(=O)Cc3ccccc3)c(Cc3ccccc3)n2)cc1", "readout.kind": "melting point", "result": "213 to 215 °C"}
{"molecule": "C1=C(c2c[nH]c3ccccc23)CCN(CC2COc3ccc4c(c3O2)OCCC4)C1 (stereo not given)", "readout.kind": "melting point", "result": "140 °C"}
{"molecule": "NC(Cc1ccc(OCc2ccccc2)cc1)C(=O)Nc1c(F)cc(F)cc1F (stereo not given)", "readout.kind": "melting point", "result": "80.5 to 86.5 °C"}

Query :: Value lookup for melting point; key = CC(=O)Oc1ccc(S(=O)(=O)Cl)cc1N=NC(C(C)=O)C(=O)Nc1ccccc1 (stereo not given)
Result :: 225 to 226 °C

Query :: Value lookup for melting point; key = Cc1cccc(C(=O)c2cccc(N)c2)c1
Result :: 110 °C

Query :: Value lookup for melting point; key = COc1ccc(OCCCCBr)c(C2Sc3cc(Cl)ccc3N(C)C2=O)c1 (stereo not given)
Result :: 106 to 107 °C

====

melting point: recorded values

// solved cases for melting point follow
{"molecule": "O=C(O)c1cc2cc(Cl)ccc2nc1NC(Cc1cccc(F)c1)C(=O)O (centres undefined)", "result": "177 to 181 °C"}
{"molecule": "Cc1nn(-c2ccccn2)c(C)c1S(N)(=O)=O", "result": "160 to 163 °C"}
{"molecule": "COC(=O)COc1ccc([N+](=O)[O-])cc1", "result": "98 to 99 °C"}
{"molecule": "O=C(O)COc1cc(F)ccc1C(=O)NCc1nc2cc(C(F)(F)F)ccc2s1", "result": "206 to 208 °C"}

Continue with the next molecule.
Query :: Value lookup for melting point; key = CCc1nc(Cl)c(C(=O)N(C)CC)n1Cc1ccc2oc(-c3ccccc3NC(=O)OC(C)(C)C)c(Br)c2c1
Result :: 95 to 96 °C

====

readout.kind: melting point

// solved cases for melting point follow
{"compound": "CN1C(=O)CC[C@]2(C)c3ccc(SCc4ccccc4)cc3CC[C@@H]12", "melting point": "137 to 138 °C"}
{"compound": "O=Cc1ccnc(OCC=CCNC(=O)CS(=O)Cc2ccco2)c1 (stereo not given)", "melting point": "67.6 to 69.9 °C"}

Query :: Value lookup for melting point; key = COc1cccc(N2CCN(S(=O)(=O)c3ccc(/C=C/C(=O)NO)cc3)CC2)c1
Result :: 199 to 200 °C

====

melting point: recorded values

Query :: Value lookup for melting point; key = O=c1[nH]c2ncc(-c3ccc(-c4ncc[nH]4)cc3)nc2n1CC1CCCCC1
Result :: 349 to 351 °C

Query :: Value lookup for melting point; key = Cc1cc(O)n(C)c(=O)c1C#N
Result :: 285 °C

Query :: Value lookup for melting point; key = CCCCCCCCCN(C[C@H]1CC[C@H](CN(CCCCCCCCC)C(=O)Nc2ccc(N(C)C)cc2)CC1)C(=O)Nc1ccc(N(C)C)cc1
Result :: 96 to 98 °C

Query :: Value lookup for melting point; key = CCOC(=O)C1C(=O)NCC1CCc1ccc(C(=O)OCC(C)C)cc1 (stereo not given)
Result :: 98 to 104 °C

Query :: Value lookup for melting point; key = Cc1ccc(NC(=O)c2ccc(CN3CCN(C)C(=O)C3)cc2)cc1Nc1nccc(-c2cccnc2)n1
Result :: 187 to 192 °C
